Sourced from IntAct's records for PubMed 29039417

B1: Protein PTHB1 (Homo sapiens), Q3SYG4 (parent)
chain: MSLFKARDWWSTILGDKEEFDQGCLCLANVDNSGNGQDKIIVGSFMGYLRIFSPHPAKTGDGAQAEDLLLEVDLRDPVLQVEVGKFVSGTEMLHLAVLHSRKLCVYSVSGTLGNVEHGNQCQMKLMYEHNLQRTACNMTYGSFGGVKGRDLICIQSMDGMLMVFEQESYAFGRFLPGFLLPGPLAYSSRTDSFLTVSSCQQVESYKYQVLAFATDADKRQETEQQKLGSGKRLVVDWTLNIGEQALDICIVSFNQSASSVFVLGERNFFCLKDNGQIRFMKKLDWSPSCFLPYCSVSEGTINTLIGNHNNMLHIYQDVTLKWATQLPHIPVAVRVGCLHDLKGVIVTLSDDGHLQCSYLGTDPSLFQAPNVQSRELNYDELDVEMKELQKIIKDVNKSQGVWPMTEREDDLNVSVVVSPNFDSVSQATDVEVGTDLVPSVTVKVTLQNRVILQKAKLSVYVQPPLELTCDQFTFEFMTPDLTRTVSFSVYLKRSYTPSELEGNAVVSYSRPTDRNPDGIPRVIQCKFRLPLKLICLPGQPSKTASHKITIDTNKSPVSLLSLFPGFASQSDDDQVNVMGFHFLGGARITVLASKTSQRYRIQSEQFEDLWLITNELILRLQEYFEKQGVKDFACSFSGSIPLQEYFELIDHHFELRINGEKLEELLSERAVQFRAIQRRLLARFKDKTPAPLQHLDTLLDGTYKQVIALADAVEENQGNLFQSFTRLKSATHLVILLIALWQKLSADQVAILEAAFLPLQEDTQELGWEETVDAAISHLLKTCLSKSSKEQALNLNSQLNIPKDTSQLKKHITLLCDRLSKGGRLCLSTDAAAPQTMVMPGGCTTIPESDLEERSVEQDSTELFTNHRHLTAETPRPEVSPLQGVSE
partner: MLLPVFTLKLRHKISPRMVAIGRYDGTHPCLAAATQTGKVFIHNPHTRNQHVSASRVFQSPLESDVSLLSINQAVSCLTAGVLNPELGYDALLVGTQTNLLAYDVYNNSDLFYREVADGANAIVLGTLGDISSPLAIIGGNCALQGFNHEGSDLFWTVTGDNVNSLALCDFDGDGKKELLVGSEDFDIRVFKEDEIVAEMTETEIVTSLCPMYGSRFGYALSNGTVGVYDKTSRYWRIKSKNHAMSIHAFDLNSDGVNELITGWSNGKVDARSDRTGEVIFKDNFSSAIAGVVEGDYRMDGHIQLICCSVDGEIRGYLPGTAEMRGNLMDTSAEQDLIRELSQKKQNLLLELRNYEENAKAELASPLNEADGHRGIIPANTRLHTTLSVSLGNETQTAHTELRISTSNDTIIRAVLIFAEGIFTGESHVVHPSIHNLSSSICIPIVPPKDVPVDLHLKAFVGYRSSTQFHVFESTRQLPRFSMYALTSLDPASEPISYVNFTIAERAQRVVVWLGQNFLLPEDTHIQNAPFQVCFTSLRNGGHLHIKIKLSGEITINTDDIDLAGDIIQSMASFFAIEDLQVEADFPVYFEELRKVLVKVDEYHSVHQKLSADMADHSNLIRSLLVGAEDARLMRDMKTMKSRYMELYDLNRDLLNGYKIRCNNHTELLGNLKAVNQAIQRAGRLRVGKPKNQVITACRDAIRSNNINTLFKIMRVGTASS

variants of: B1; conditions: with bbs2_human BBS2, Q9BXC9
measure: effect of a mutation on the interaction

{"mutant-code": "H732E", "effect of a mutation on the interaction": "with no effect"}
{"mutant-code": "V713E", "effect of a mutation on the interaction": "with no effect"}
{"mutant-code": "I801E", "effect of a mutation on the interaction": "with no effect"}
{"mutant-code": "Q471K", "effect of a mutation on the interaction": "with no effect"}
{"mutant-code": "T405A", "effect of a mutation on the interaction": "with no effect"}

INPUT: State the recorded effect of a mutation on the interaction for this entry: K532A
OUTPUT: with no effect

INPUT: State the recorded effect of a mutation on the interaction for this entry: D650K
OUTPUT: with no effect

INPUT: State the recorded effect of a mutation on the interaction for this entry: Q883K
OUTPUT: with no effect

INPUT: State the recorded effect of a mutation on the interaction for this entry: Q798A
OUTPUT: with no effect
